// reported Emax per item
molecular target: h12/15-LOX (Homo sapiens (Human), UniProt P16050); experiment: 12/15-LOX enzyme inhibition IC50 assay (Examples 1 and 2); assay type: biochemical; conditions: h12/15-LOX; read-out: Max % inhibition
Sequence (P16050 whole entry): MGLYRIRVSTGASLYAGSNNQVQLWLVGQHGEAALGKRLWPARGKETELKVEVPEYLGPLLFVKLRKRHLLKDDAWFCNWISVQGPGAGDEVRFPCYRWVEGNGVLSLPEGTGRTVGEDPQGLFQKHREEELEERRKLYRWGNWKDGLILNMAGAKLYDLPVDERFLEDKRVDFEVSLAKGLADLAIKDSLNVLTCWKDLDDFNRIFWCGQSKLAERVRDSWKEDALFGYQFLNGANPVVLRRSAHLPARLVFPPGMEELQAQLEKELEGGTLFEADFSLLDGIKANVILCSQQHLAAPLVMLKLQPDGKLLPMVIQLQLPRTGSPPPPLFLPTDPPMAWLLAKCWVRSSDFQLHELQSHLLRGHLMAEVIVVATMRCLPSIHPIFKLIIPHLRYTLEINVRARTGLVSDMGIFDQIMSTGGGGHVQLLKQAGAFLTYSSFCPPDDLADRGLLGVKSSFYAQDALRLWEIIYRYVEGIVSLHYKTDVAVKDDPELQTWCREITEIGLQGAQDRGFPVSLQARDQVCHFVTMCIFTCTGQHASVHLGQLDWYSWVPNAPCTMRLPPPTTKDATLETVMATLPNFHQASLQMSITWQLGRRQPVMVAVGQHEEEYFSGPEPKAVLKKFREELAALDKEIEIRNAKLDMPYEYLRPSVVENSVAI
Note: unit % is implicit; provide only the numeric part.

Completed entries (count: 2):
>>> df
                                   compound  experimental_value
0  COCCNc1oc(-c2cc(Cl)cc(Cl)c2Cl)nc1C#N [Compound 39]                 100
1  Cc1cc(Cl)c(Cl)c(-c2nc(C#N)c(NCCCCO)o2)c1 [Compound 21]                  86

Quick check: Emax on h12/15-LOX (Homo sapiens (Human), UniProt P16050), item N#Cc1nc(-c2cc(Cl)cc(Cl)c2Cl)oc1NCCOCCOc1ccncc1 [Compound 97] ?
68

Query Emax on h12/15-LOX (Homo sapiens (Human), UniProt P16050) for COC/C=C/CNc1oc(-c2cc(Cl)cc(Cl)c2Cl)nc1C#N [Compound 45]
98

Given the entry CNc1oc(-c2cc(Cl)cc(Cl)c2OC)nc1C#N [Compound 5] , what Emax was observed with h12/15-LOX (Homo sapiens (Human), UniProt P16050)?
92
